test details: Volume of distribution at steady state in rat at 0.5 mg/kg, iv or 1 mg/kg, po
Assay type: ADME, organism-based
condition summary: in vivo, read-out: Vdss
measured property: Vd (L/kg)
Express your answer in L/kg, writing the number without its unit.

Request: Which Vd value belongs to "CC(C)(F)CN1[C@@H]2CCC[C@@]1(c1c(F)cc(/C=C/C(=O)O)cc1F)c1[nH]c3ccccc3c1C2" ?
Response: 1.6

---

test details: Stability of the compound assessed as parent compound remaining in buffer at pH 7.4 measured after 4 days by 1H-NMR analysis
Format: physicochemical
condition summary: read-out: Stability
measured property: remaining at 96 h
Write the figure, then the unit, nothing else.

Request: Which remaining at 96 h value belongs to "C[C@@H]1Cc2c([nH]c3ccccc23)[C@@](C)(c2c(F)cc(/C=C/C(=O)O)cc2F)N1CC(C)(C)F" ?
Response: 58%

---

test details: Aqueous solubility of the compound in phosphate buffer at pH 7.4 at 25 degC after 24 hrs
Assay type: physicochemical
measured property: solubility at 24 h

Request: Which solubility at 24 h value belongs to "CC(C)(F)CN1[C@@H]2CCC[C@@]1(c1c(F)cc(/C=C/C(=O)O)cc1F)c1[nH]c3ccccc3c1C2" ?
Response: 734 µM

---

system tested: Estrogen receptor (Homo sapiens, UniProt P03372)
Sequence (P03372 whole entry): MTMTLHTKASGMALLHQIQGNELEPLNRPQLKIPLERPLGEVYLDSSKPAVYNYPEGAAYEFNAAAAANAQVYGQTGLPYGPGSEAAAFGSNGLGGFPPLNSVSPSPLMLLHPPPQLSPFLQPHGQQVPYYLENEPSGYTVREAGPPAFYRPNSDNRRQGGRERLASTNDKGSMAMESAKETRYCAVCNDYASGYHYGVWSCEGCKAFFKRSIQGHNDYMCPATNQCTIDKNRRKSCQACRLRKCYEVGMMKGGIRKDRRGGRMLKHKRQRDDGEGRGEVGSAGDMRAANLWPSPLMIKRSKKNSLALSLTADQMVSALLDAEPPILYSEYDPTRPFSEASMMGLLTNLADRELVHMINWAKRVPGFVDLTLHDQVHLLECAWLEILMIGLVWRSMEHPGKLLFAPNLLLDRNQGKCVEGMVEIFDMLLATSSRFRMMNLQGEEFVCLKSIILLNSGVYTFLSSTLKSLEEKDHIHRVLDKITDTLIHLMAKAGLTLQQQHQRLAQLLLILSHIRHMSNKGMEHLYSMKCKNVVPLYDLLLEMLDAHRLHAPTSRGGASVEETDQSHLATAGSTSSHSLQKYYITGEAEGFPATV
measured property: pIC50
Quick note: pIC50 means taking -log10 of the concentration in moles per liter.

Here is how some molecules turned out for pIC50.
C[C@@H]1Cc2c([nH]c3ccccc23)[C@@](C)(c2c(F)cc(/C=C/C(=O)O)cc2F)N1CC(C)(C)F    8.90
CC(C)(F)CN1[C@@H]2CCC[C@@]1(c1c(F)cc(OCCN3CC(CF)C3)cc1F)c1[nH]c3ccccc3c1C2    8.70
CC(C)(F)CN1[C@@H]2CCC[C@@]1(c1c(F)cc(/C=C/C(=O)O)cc1F)c1[nH]c3ccccc3c1C2    7.80
CC(C)(F)CN1[C@@H]2C=CC[C@@]1(c1c(F)cc(/C=C/C(=O)O)cc1F)c1[nH]c3ccccc3c1C2    8.80

Next up:
Request: Which pIC50 value belongs to "C[C@@H]1Cc2c([nH]c3ccccc23)[C@@](C)(c2c(F)cc(OCCN3CC(CF)C3)cc2F)N1CC(C)(C)F" ?
Response: 9.60

---

system tested: Cytochrome P450 1A2 (Homo sapiens)
Sequence (P05177 whole entry): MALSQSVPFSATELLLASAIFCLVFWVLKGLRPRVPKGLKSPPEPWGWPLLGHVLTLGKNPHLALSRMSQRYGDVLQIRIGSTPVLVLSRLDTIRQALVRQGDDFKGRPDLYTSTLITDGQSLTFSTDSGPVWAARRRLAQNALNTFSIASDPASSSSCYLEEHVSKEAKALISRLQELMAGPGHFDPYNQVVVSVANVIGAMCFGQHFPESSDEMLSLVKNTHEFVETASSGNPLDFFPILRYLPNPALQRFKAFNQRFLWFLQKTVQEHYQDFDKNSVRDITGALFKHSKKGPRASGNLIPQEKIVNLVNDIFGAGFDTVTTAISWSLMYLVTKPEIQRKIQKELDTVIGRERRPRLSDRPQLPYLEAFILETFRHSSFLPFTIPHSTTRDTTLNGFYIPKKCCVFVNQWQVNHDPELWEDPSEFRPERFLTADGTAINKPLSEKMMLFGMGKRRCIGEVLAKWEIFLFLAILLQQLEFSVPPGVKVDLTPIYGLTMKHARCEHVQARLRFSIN
pIC50: −log10 of the molar value.
measured property: pIC50

Request: Which pIC50 value belongs to "CC(C)(F)CN1[C@@H]2CCC[C@@]1(c1c(F)cc(/C=C/C(=O)O)cc1F)c1[nH]c3ccccc3c1C2" ?
Response: < 4.52

---

test details: physchem
condition summary: buffer, pH 7.4
measured property: logD

Here is how some compounds turned out for logD.
C[C@@H]1Cc2c([nH]c3ccccc23)[C@@](C)(c2c(F)cc(/C=C/C(=O)O)cc2F)N1CC(C)(C)F    2.7
CC(C)(F)CN1[C@@H]2CCC[C@@]1(c1c(F)cc(OCCN3CC(CF)C3)cc1F)c1[nH]c3ccccc3c1C2    5.3
CC(C)(F)CN1[C@@H]2C=CC[C@@]1(c1c(F)cc(/C=C/C(=O)O)cc1F)c1[nH]c3ccccc3c1C2    2.8

Request: Which logD value belongs to "C[C@@H]1Cc2c([nH]c3ccccc23)[C@@H](c2c(F)cc(OCCN3CC(CF)C3)cc2F)N1CC(C)(C)F" ?
Response: > 4.4

Request: Then "CC(C)(F)CN1[C@@H]2CCC[C@@]1(c1c(F)cc(/C=C/C(=O)O)cc1F)c1[nH]c3ccccc3c1C2" ?
Response: 2.9

Request: Then "C[C@@H]1Cc2c([nH]c3ccccc23)[C@@](C)(c2c(F)cc(OCCN3CC(CF)C3)cc2F)N1CC(C)(C)F" ?
Response: > 4.4
